The following molecules are listed with their measured CC50 at 4 days values.
run description: Compound cytotoxicity, XTT-based colorimetric assay
Assay type: cell-based
run parameters: human; uninfected MT2 cells, day 4, XTT; read-out: CC50

Field: example entries. Status: answers known.
[[record]]
molecule = "Cc1cc(C2(C)CCC(F)(F)CC2)nc2nc([C@H](Cc3cc(F)cc(F)c3)NC(=O)Cn3nc(C4CC4)c4c3C[C@@H]3C[C@H]43)n(-c3ccc(Cl)c4c(NS(C)(=O)=O)nn(CCN5CC(C)(C)OC(C)(C)C5)c34)c(=O)c12 (atropisomer, axis not shown; (P))"
recorded_result = "> 20 nM"

[[record]]
molecule = "Cc1cc(C2(F)CCC(F)(F)CC2)nc2nc([C@H](Cc3cc(F)cc(F)c3)NC(=O)Cn3nc(C(F)F)c4c3C(F)(F)[C@@H]3C[C@H]43)n(-c3ccc(Cl)c4c(NS(C)(=O)=O)nn([C@H](C)CN5C[C@H](F)C[C@H](F)C5)c34)c(=O)c12 (atropisomer, axis not shown; (P))"
recorded_result = "> 20 nM"

[[record]]
molecule = "CCNc1cc(C2CCC(F)(F)CC2)nc2nc([C@H](Cc3cc(F)cc(F)c3)NC(=O)Cn3nc(C4CC4)c4c3C[C@@H]3C[C@H]43)n(-c3ccc(Cl)c4c(NS(C)(=O)=O)nn(CCCOC)c34)c(=O)c12 (atropisomer, axis not shown; (P))"
recorded_result = "> 20 nM"

[[record]]
molecule = "COCCCn1nc(NS(C)(=O)=O)c2c(Cl)ccc(-n3c([C@H](Cc4cc(F)cc(F)c4)NC(=O)Cn4nc(C(F)F)c5c4C(F)(F)[C@@H]4C[C@H]54)nc4nc(C5CCC(F)(F)CC5)cc(NCCN5CCN(C(C)=O)CC5)c4c3=O)c21 (atropisomer, axis not shown; (P))"
recorded_result = "> 20 nM"

[[record]]
molecule = "Cc1cc(C2(F)CCC(F)(F)CC2)nc2nc([C@H](Cc3cc(F)cc(F)c3)NC(=O)Cn3nc(C4CC4)c4c3C[C@@H]3C[C@H]43)n(-c3ccc(Cl)c4c(NS(C)(=O)=O)nn(CCc5cccnc5)c34)c(=O)c12 (relative stereo)"
recorded_result = "> 20 nM"


input: State the recorded CC50 at 4 days for this entry: CCc1cc(C2CCC(F)(F)CC2)nc2nc([C@H](Cc3cc(F)cc(F)c3)NC(=O)Cn3nc(C4CC4)c4c3C(F)(F)[C@@H]3C[C@H]43)n(-c3ccc(Cl)c4c(NS(C)(=O)=O)nn(CCCOC)c34)c(=O)c12 (atropisomer, axis not shown; (P))
output: > 50 nM

input: State the recorded CC50 at 4 days for this entry: CS(=O)(=O)Nc1nn(CCN2CC(C(F)F)C2)c2c(-n3c([C@H](Cc4cc(F)cc(F)c4)NC(=O)Cn4nc(C(F)F)c5c4C(F)(F)[C@@H]4C[C@H]54)nc4nc(C5CCC(F)(F)CC5)cc(C(F)F)c4c3=O)ccc(Cl)c12 (atropisomer, axis not shown; (P))
output: > 50 nM

input: State the recorded CC50 at 4 days for this entry: COCCCNc1cc(C2CCC(F)(F)CC2)nc2nc([C@H](Cc3cc(F)cc(F)c3)NC(=O)Cn3nc(C(F)F)c4c3C(F)(F)[C@@H]3C[C@H]43)n(-c3ccc(Cl)c4c(NS(C)(=O)=O)nn(CCCOC)c34)c(=O)c12 (atropisomer, axis not shown; (P))
output: > 50 nM

input: State the recorded CC50 at 4 days for this entry: CCc1cc(C2CCC(F)(F)CC2)nc2nc([C@H](Cc3cc(F)cc(F)c3)NC(=O)Cn3nc(C(F)F)c4c3C[C@H]3C[C@@H]43)n(-c3ccc(Cl)c4c(NS(C)(=O)=O)nn(CCOC)c34)c(=O)c12 (relative stereo)
output: > 50 nM

###

run description: Compound cytotoxicity, XTT-based colorimetric assay
Type: cell-based
run parameters: human; uninfected MT2 cells, day 4, XTT; read-out: CC50
The following compounds are listed with their measured CC50 at 4 days values.

[[record]]
compound = "Cc1cc(C2(F)CCC(F)(F)CC2)nc2nc([C@H](Cc3cc(F)cc(F)c3)NC(=O)Cn3nc(C4CC4)c4c3C[C@@H]3C[C@H]43)n(-c3ccc(Cl)c4c(NS(C)(=O)=O)nn(C[C@@H](C)N5C[C@@H](C)O[C@@H](C)C5)c34)c(=O)c12 (relative stereo)"
recorded_result = "> 20 nM"

[[record]]
compound = "Cc1cc(C2(F)CCC(F)(F)CC2)nc2nc([C@H](Cc3cc(F)cc(F)c3)NC(=O)Cn3nc(C(F)F)c4c3C(F)(F)[C@@H]3C[C@H]43)n(-c3ccc(Cl)c4c(NS(C)(=O)=O)nn(CCN5C[C@@H](C)O[C@@H](C)C5)c34)c(=O)c12 (atropisomer, axis not shown; (P))"
recorded_result = "> 20 nM"

[[record]]
compound = "Cc1cc(C2CCC(F)(F)CC2)nc2nc([C@H](Cc3cc(F)cc(F)c3)NC(=O)Cn3nc(C(F)F)c4c3C(F)(F)[C@@H]3C[C@H]43)n(-c3ccc(Cl)c4c(NS(C)(=O)=O)nn(CCN5CCC(C)(F)CC5)c34)c(=O)c12 (atropisomer, axis not shown; (P))"
recorded_result = "> 50 nM"


input: State the recorded CC50 at 4 days for this entry: COCCCn1nc(NS(C)(=O)=O)c2c(Cl)ccc(-n3c([C@H](Cc4cc(F)cc(F)c4)NC(=O)Cn4nc(C(F)(F)F)c5c4C[C@@H]4C[C@H]54)nc4nc(C5CCC(F)(F)CC5)cc(C)c4c3=O)c21 (atropisomer, axis not shown; (P))
output: > 50 nM

input: State the recorded CC50 at 4 days for this entry: Cc1cc(C2CCC(F)(F)CC2)nc2nc([C@H](Cc3cc(F)cc(F)c3)NC(=O)Cn3nc(C(F)F)c4c3C(F)(F)[C@@H]3C[C@H]43)n(-c3ccc(Cl)c4c(NS(C)(=O)=O)nn(CCN5CCC(F)(F)CC5)c34)c(=O)c12 (atropisomer, axis not shown; (P))
output: > 50 nM

input: State the recorded CC50 at 4 days for this entry: COCCCn1nc(NS(C)(=O)=O)c2c(Cl)ccc(-n3c([C@H](Cc4cc(F)cc(F)c4)NC(=O)Cn4nc(C(F)F)c5c4C(F)(F)[C@@H]4C[C@H]54)nc4nc(C5CCC(F)(F)CC5)cc(CN5C[C@H](F)C[C@H](F)C5)c4c3=O)c21 (atropisomer, axis not shown; (P))
output: > 20 nM

input: State the recorded CC50 at 4 days for this entry: Cc1cc(C2(F)CCC(F)(F)CC2)nc2nc([C@H](Cc3cc(F)cc(F)c3)NC(=O)Cn3nc(C(F)F)c4c3C(F)(F)[C@@H]3C[C@H]43)n(-c3ccc(Cl)c4c(NS(C)(=O)=O)nn(CCN5C[C@H](F)C[C@H](F)C5)c34)c(=O)c12 (atropisomer, axis not shown; (P))
output: > 20000 nM

###

The following molecules are listed with their measured CC50 at 4 days values.
run description: Compound cytotoxicity, XTT-based colorimetric assay
Type: cell-based
run parameters: human; uninfected MT2 cells, day 4, XTT; read-out: CC50

[[record]]
molecule = "Cc1cc(C2(F)CCC(F)(F)CC2)nc2nc([C@H](Cc3cc(F)cc(F)c3)NC(=O)Cn3nc(C4CC4)c4c3C[C@@H]3C[C@H]43)n(-c3ccc(Cl)c4c(NS(C)(=O)=O)nn(CCN5C[C@H](F)C[C@H](F)C5)c34)c(=O)c12 (atropisomer, axis not shown; (P)) [Example 12]"
observed_property = "CC50 at 4 days"
recorded_result = "> 20 µM"


Now look at this one.
input: State the recorded CC50 at 4 days for this entry: Cc1cc(C2CCC(F)(F)CC2)nc2nc([C@H](Cc3cc(F)cc(F)c3)NC(=O)Cn3nc(C(F)F)c4c3C(F)(F)[C@@H]3C[C@H]43)n(-c3ccc(Cl)c4c(NS(C)(=O)=O)nn(CCN5C[C@H](F)C[C@H](F)C5)c34)c(=O)c12 (atropisomer, axis not shown; (P)) [Example 5]
output: > 20 µM

###

run description: Compound cytotoxicity, XTT-based colorimetric assay
Format: cell-based
run parameters: human; uninfected MT2 cells, day 4, XTT; read-out: CC50
observed property: CC50 at 4 days

Field: example entries. Status: answers known.
[[record]]
compound = "Cc1cc(C2CCC(F)(F)CC2)nc2nc([C@H](Cc3cc(F)cc(F)c3)NC(=O)Cn3nc(C4CC4)c4c3C[C@@H]3C[C@H]43)n(-c3ccc(Cl)c4c(NS(C)(=O)=O)nn(CCN5C[C@H](F)C[C@H](F)C5)c34)c(=O)c12 (atropisomer, axis not shown; (P))"
observed_property = "CC50 at 4 days"
recorded_result = "> 50 nM"

[[record]]
compound = "COCCCn1nc(NS(C)(=O)=O)c2c(Cl)ccc(-n3c([C@H](Cc4cc(F)cc(F)c4)NC(=O)Cn4nc(C(F)F)c5c4C(F)(F)[C@@H]4C[C@H]54)nc4nc(C5CCC(F)(F)CC5)cc(NCCN5CCC5)c4c3=O)c21 (atropisomer, axis not shown; (P))"
observed_property = "CC50 at 4 days"
recorded_result = "> 20 nM"

[[record]]
compound = "Cc1cc(C2CCC(F)(F)CC2)nc2nc([C@H](Cc3cc(F)cc(F)c3)NC(=O)Cn3nc(C4CC4)c4c3C[C@@H]3C[C@H]43)n(-c3ccc(Cl)c4c(NS(C)(=O)=O)nn(CCN5CCOCC5)c34)c(=O)c12 (atropisomer, axis not shown; (P))"
observed_property = "CC50 at 4 days"
recorded_result = "> 50 nM"

[[record]]
compound = "CCc1cc(C2CCC(F)(F)CC2)nc2nc([C@H](Cc3cc(F)cc(F)c3)NC(=O)Cn3nc(C(F)F)c4c3C[C@H]3C[C@@H]43)n(-c3ccc(Cl)c4c(NS(C)(=O)=O)nn(CCCOC)c34)c(=O)c12 (relative stereo)"
observed_property = "CC50 at 4 days"
recorded_result = "> 50 nM"


input: State the recorded CC50 at 4 days for this entry: Cc1cc(C2CCC(F)(F)CC2)nc2nc([C@H](Cc3cc(F)cc(F)c3)NC(=O)Cn3nc(C(F)F)c4c3C(F)(F)[C@@H]3C[C@H]43)n(-c3ccc(Cl)c4c(NS(C)(=O)=O)nn(CCN5CCCC(F)(F)CC5)c34)c(=O)c12 (atropisomer, axis not shown; (P))
output: > 50 nM
